meta.source: the kinase profiling compilation of Christmann-Franck et al. (2016)

# Assay target: PRKD3 (human) (UniProt O94806)
# Sequence (O94806 whole entry, looked up): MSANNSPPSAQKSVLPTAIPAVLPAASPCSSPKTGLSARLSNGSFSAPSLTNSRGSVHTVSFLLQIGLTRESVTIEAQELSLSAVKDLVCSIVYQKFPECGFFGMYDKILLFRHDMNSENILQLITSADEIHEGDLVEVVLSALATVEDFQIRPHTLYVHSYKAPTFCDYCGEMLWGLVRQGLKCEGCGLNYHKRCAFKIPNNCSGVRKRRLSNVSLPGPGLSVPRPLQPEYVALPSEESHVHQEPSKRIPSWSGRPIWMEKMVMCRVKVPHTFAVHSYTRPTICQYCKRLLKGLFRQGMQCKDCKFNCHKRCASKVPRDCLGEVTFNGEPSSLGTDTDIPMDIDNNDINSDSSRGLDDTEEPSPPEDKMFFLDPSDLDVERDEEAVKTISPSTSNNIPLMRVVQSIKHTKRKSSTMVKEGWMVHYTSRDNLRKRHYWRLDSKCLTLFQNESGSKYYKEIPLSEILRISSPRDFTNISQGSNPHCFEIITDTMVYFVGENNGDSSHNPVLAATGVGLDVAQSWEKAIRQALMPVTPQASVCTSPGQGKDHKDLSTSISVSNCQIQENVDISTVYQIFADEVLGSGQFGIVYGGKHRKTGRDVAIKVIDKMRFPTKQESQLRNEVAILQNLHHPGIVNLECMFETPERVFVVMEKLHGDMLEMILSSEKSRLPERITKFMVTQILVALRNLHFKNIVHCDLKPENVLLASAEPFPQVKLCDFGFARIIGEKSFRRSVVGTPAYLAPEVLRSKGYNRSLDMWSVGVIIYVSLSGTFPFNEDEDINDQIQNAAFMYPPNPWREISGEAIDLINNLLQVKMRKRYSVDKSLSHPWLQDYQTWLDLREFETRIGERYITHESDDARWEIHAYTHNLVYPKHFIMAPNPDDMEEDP
# Experiment summary: KINOMEscan competition binding
# Run parameters: compound 10.0 µM
Consider the cut-off 90%. If the recorded kinase still bound, per cent of control is strictly smaller, the label is Met; if not, the label is Not met.

Solved cases below.
> print(dat)
                                    molecule  assigned.class
 1  Cc1cn(-c2cc(C(=O)Nc3ccc(C)c(NC(=O)c4ccno4)c3)cc(C(F)(F)F)c2)cn1         Not met
 2  CCN1CCN(Cc2ccc(NC(=O)c3ccc(C)c(/C=C/c4cnc5[nH]ccc5c4OC)c3)cc2C(F)(F)F)CC1             Met
 3  CC(=O)c1c(C)c2cnc(Nc3ccc(N4CCNCC4)cn3)nc2n(C2CCCC2)c1=O             Met
 4  CNC(=O)Nc1ccc(-c2nc(N3CC4CCC(C3)O4)c3cnn(C4CCC5(CC4)OCCO5)c3n2)cc1         Not met
 5  O=c1[nH]c2ccccc2n1C1CCN(Cc2ccc(-c3nc4cc5[nH]cnc5cc4nc3-c3ccccc3)cc2)CC1         Not met
 6  N#Cc1cc(-c2ccnc(Nc3ccc(-n4cnc(-c5cccnc5)n4)cc3)n2)cc(N2CCOCC2)c1         Not met
 7  CCOc1cc(N2CCC(O)CC2)ccc1Nc1ncc2c(n1)N(C)c1ccccc1C(=O)N2C         Not met
 8  COc1ccc(N(C(=O)Oc2cc(C(=O)Nc3cccc(C(F)(F)F)c3)ccc2C)c2ccnc(Nc3ccc(N4CCN(C)CC4)cc3)n2)c(OC)c1         Not met
 9  CCN(CCO)CCCOc1ccc2c(Nc3cc(CC(=O)Nc4cccc(F)c4)[nH]n3)ncnc2c1             Met
10  COc1cc(C)c(Sc2cnc(NC(=O)c3ccc(CNC(C)C(C)C)cc3)s2)cc1C(=O)N1CCN(C(C)=O)CC1 (stereo not drawn)         Not met

Enquiry: Quick check: kinase still bound, per cent of control of COc1cc(N2CCC(C(N)=O)CC2)ccc1Nc1nc(N)c(Cl)c(Nc2ccccc2S(=O)(=O)C(C)C)n1 under 90%?
Return: Not met

Enquiry: Quick check: kinase still bound, per cent of control of N#C/C(=C1/Nc2ccccc2S1)c1ccnc(NCCc2cccnc2)n1 under 90%?
Return: Met

Enquiry: Quick check: kinase still bound, per cent of control of CC1=C(C(=O)Nc2cc3cn[nH]c3cc2F)C(c2ccc(C(F)(F)F)cc2)CC(=O)N1 (stereo not drawn) under 90%?
Return: Met

Enquiry: Quick check: kinase still bound, per cent of control of CCCS(=O)(=O)Nc1ccc(F)c(C(=O)c2c[nH]c3ncc(Cl)cc23)c1F under 90%?
Return: Not met

Enquiry: Quick check: kinase still bound, per cent of control of COc1cc2c(Nc3ccc(NC(=O)c4ccccc4)cc3)ncnc2cc1OCCCN1CCOCC1 under 90%?
Return: Not met

Enquiry: Quick check: kinase still bound, per cent of control of C=CC(=O)Nc1ccc(C(=O)c2sc(Nc3ccc(N4CCN(C)CC4)cc3OC)nc2N)cc1 under 90%?
Return: Met

Enquiry: Quick check: kinase still bound, per cent of control of CCc1nc(-c2cccc(C)c2)c(-c2ccnc(NC(=O)c3ccccc3)c2)s1 under 90%?
Return: Met
